Test system: NCI-H1563 (Lung Adenocarcinoma);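 further: after 72 h of two-drug dosing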
Experiment: Bliss excess, mean over the matrix (fraction); higher = more synergy
measure: Bliss excess

Examples with their reported Bliss excess follow.
CN(CCO)CC[C@H](CSc1ccccc1)Nc1ccc(S(=O)(=O)NC(=O)c2ccc(N3CCC([C@@H](O)c4ccccc4-c4ccc(Cl)cc4)CC3)cc2)cc1S(=O)(=O)C(F)(F)F [AZD4320] + CCN(CCO)CCCOc1ccc2c(Nc3cc(CC(=O)Nc4cccc(F)c4)[nH]n3)ncnc2c1 [AZD2811] (first compound max 1 µM, 7x7, partner max 1 µM)
-0.0002
CN(CCO)CC[C@H](CSc1ccccc1)Nc1ccc(S(=O)(=O)NC(=O)c2ccc(N3CCC([C@@H](O)c4ccccc4-c4ccc(Cl)cc4)CC3)cc2)cc1S(=O)(=O)C(F)(F)F [AZD4320] + C1CN(CCC1(C(=O)N[C@@H](CCO)C2=CC=C(C=C2)Cl)N)C3=NC=NC4=C3C=CN4 [Capivasertib] (first compound max 1 µM, 7x7, partner max 3 µM)
-0.0423

Now look at this one.
# return recorded Bliss excess for entry CN(CCO)CC[C@H](CSc1ccccc1)Nc1ccc(S(=O)(=O)NC(=O)c2ccc(N3CCC([C@@H](O)c4ccccc4-c4ccc(Cl)cc4)CC3)cc2)cc1S(=O)(=O)C(F)(F)F [AZD4320] + C[C@@H]1COCCN1C2=NC(=NC(=C2)C3(CC3)[S@](=N)(=O)C)C4=C5C=CNC5=NC=C4 [AZD6738] (first compound max 1 µM, 7x7, partner max 10 µM) 0.0051
